Tested on: Hepatotoxicity
Conditions: Liver
Quantity measured: HepSE_cholecystitis
Number only, no unit.

Nc1c2c(nc3ccccc13)CCCC2 [TACRINE] = 1
O=C(O)c1cn(C2CC2)c2cc(N3CCNCC3)c(F)cc2c1=O [CIPROFLOXACIN] = 0
Cc1cccc(Nc2ccccc2C(=O)O)c1C [MEFENAMIC ACID] = 0
NCCCC(O)(P(=O)(O)O)P(=O)(O)O [ALENDRONIC ACID] = 0

Prompt: # get_value(readout= HepSE_cholecystitis, system= Hepatotoxicity) for C#C[C@]1(O)CC[C@H]2[C@@H]3CCC4=CC(=O)CC[C@@H]4[C@H]3CC[C@@]21CC [LEVONORGESTREL]
Response: 0

* * *

Measured HepSE_hepatitis, listed per entry.
System: Hepatotoxicity
Number only, no unit.

Below are worked cases with known answers.
COc1ccc([C@@H]2Sc3ccccc3N(CCN(C)C)C(=O)[C@@H]2OC(C)=O)cc1 = 0
CCCCCCCCCCCCCCCCCCCCCCO = 0
CO/N=C(\C(=O)N[C@@H]1C(=O)N2C(C(=O)O)=CCS[C@H]12)c1csc(N)n1 = 0
O=C1CCC(N2C(=O)c3ccccc3C2=O)C(=O)N1 (centres undefined) [THALIDOMIDE] = 1

Prompt: # get_value(readout= HepSE_hepatitis, system= Hepatotoxicity) for CCC1=C[C@@H]2CN(C1)Cc1c([nH]c3ccccc13)[C@@](C(=O)OC)(c1cc3c(cc1OC)N(C)[C@H]1[C@@](O)(C(=O)OC)[C@H](OC(C)=O)[C@]4(CC)C=CCN5CC[C@]31[C@@H]54)C2
Response: 0

Prompt: # get_value(readout= HepSE_hepatitis, system= Hepatotoxicity) for CCN(CC)CCOc1ccc(C(=C(Cl)c2ccccc2)c2ccccc2)cc1
Response: 1

Prompt: # get_value(readout= HepSE_hepatitis, system= Hepatotoxicity) for CC1CNc2c(cccc2S(=O)(=O)N[C@@H](CCCNC(=N)N)C(=O)N2CC[C@@H](C)C[C@@H]2C(=O)O)C1 (some centres undefined)
Response: 0

* * *

A short record of HepSE_Combined Scores observed with Hepatotoxicity follows.
Number only, no unit.

O=C(O[C@H]1C[C@H]2CC[C@@H](C1)[N+]21CCCC1)C(O)(c1ccccc1)c1ccccc1.[Cl-] [TROSPIUM CHLORIDE] = 0
CC[C@H]1OC(=O)[C@H](C)[C@@H](O[C@H]2C[C@@](C)(OC)[C@@H](O)[C@H](C)O2)[C@H](C)[C@@H](O[C@@H]2O[C@H](C)C[C@H](N(C)C)[C@H]2O)[C@](C)(O)C[C@@H](C)C(=O)[C@H](C)[C@@H](O)[C@]1(C)O = 1
CCCc1nc(C)c2c(=O)[nH]c(-c3cc(S(=O)(=O)N4CCN(CC)CC4)ccc3OCC)nn12 = 1
O=C1C(CC[S+]([O-])c2ccccc2)C(=O)N(c2ccccc2)N1c1ccccc1 (stereo not drawn) = 0
C[C@H](CCC(=O)O)[C@H]1CC[C@H]2[C@@H]3[C@@H](O)C[C@@H]4C[C@H](O)CC[C@]4(C)[C@H]3CC[C@]12C = 1
Nc1nc2c(ncn2CCC(CO)CO)c(=O)[nH]1 = 0
O=C[C@H](O)[C@@H](O)[C@@H](O)[C@H](O)CO = 0
Oc1ccc(C2CNCCc3c2cc(O)c(O)c3Cl)cc1 (stereo not drawn) = 0
C[C@@H](O)[C@H]1C(=O)N2C(C(=O)O)=C(S[C@@H]3CN[C@H](C(=O)N(C)C)C3)[C@H](C)[C@H]12 = 3
CCC[C@@]1(CCc2ccccc2)CC(O)=C([C@H](CC)c2cccc(NS(=O)(=O)c3ccc(C(F)(F)F)cn3)c2)C(=O)O1 = 6

Prompt: Which HepSE_Combined Scores value belongs to COc1cc(NS(C)(=O)=O)ccc1Nc1c2ccccc2nc2ccccc12 ?
Response: 3

Prompt: Which HepSE_Combined Scores value belongs to CC(C(=O)O)c1ccc(-c2ccccc2)c(F)c1 (stereo not drawn) ?
Response: 4

* * *

Measured HepSE_hepatitis, listed per entry.
Test system: Hepatotoxicity

Below are worked cases with known answers.
CCCCCCC(C)(C)c1cc(O)c2c(c1)OC(C)(C)C1CCC(=O)CC21 (stereo not drawn) [NABILONE] = 0
CCOC(=O)C1=C(C)NC(C)=C(C(=O)OC)C1c1cccc(Cl)c1Cl (stereo not drawn) [FELODIPINE] = 1
CNCC(O)c1ccc(OC(=O)C(C)(C)C)c(OC(=O)C(C)(C)C)c1 (stereo not drawn) [DIPIVEFRIN] = 0
CN[C@@H]1[C@H](O)[C@H](NC)[C@H]2O[C@@]3(O)C(=O)C[C@@H](C)O[C@H]3O[C@@H]2[C@H]1O [SPECTINOMYCIN] = 0
COCC1=C(C(=O)O)N2C(=O)[C@@H](NC(=O)/C(=N\OC)c3csc(N)n3)[C@H]2SC1 [CEFPODOXIME] = 0
CCCCC(=O)OCC(=O)[C@]1(O)Cc2c(O)c3c(c(O)c2[C@@H](O[C@H]2C[C@H](NC(=O)C(F)(F)F)[C@H](O)[C@H](C)O2)C1)C(=O)c1c(OC)cccc1C3=O [VALRUBICIN] = 0

Prompt: # get_value(readout= HepSE_hepatitis, system= Hepatotoxicity) for COc1ccc(C(CN(C)C)C2(O)CCCCC2)cc1 (stereo not drawn) [VENLAFAXINE]
Response: 1

Prompt: # get_value(readout= HepSE_hepatitis, system= Hepatotoxicity) for C[N+](C)(C)CC(O)CC(=O)[O-] (stereo not drawn) [CARNITINE]
Response: 0

Prompt: # get_value(readout= HepSE_hepatitis, system= Hepatotoxicity) for CN(C)[C@@H]1C(O)=C(C(N)=O)C(=O)[C@@]2(O)C(O)=C3C(=O)c4c(O)ccc(Cl)c4[C@@H](O)[C@H]3C[C@@H]12 [DEMECLOCYCLINE]
Response: 1

Prompt: # get_value(readout= HepSE_hepatitis, system= Hepatotoxicity) for Cc1nc2n(c(=O)c1CCN1CCC(c3noc4cc(F)ccc34)CC1)CCCC2O (stereo not drawn) [PALIPERIDONE]
Response: 0

Prompt: # get_value(readout= HepSE_hepatitis, system= Hepatotoxicity) for CNC(=C[N+](=O)[O-])NCCSCc1csc(CN(C)C)n1 [NIZATIDINE]
Response: 1

Prompt: # get_value(readout= HepSE_hepatitis, system= Hepatotoxicity) for O=C1CN=C(c2ccccc2)c2cc([N+](=O)[O-])ccc2N1 [NITRAZEPAM]
Response: 0

Prompt: # get_value(readout= HepSE_hepatitis, system= Hepatotoxicity) for C[C@@H](O)C(=O)O [D-LACTIC ACID]
Response: 0

Prompt: # get_value(readout= HepSE_hepatitis, system= Hepatotoxicity) for CCCCN(CCCC)CCC(O)c1cc2c(Cl)cc(Cl)cc2c2cc(C(F)(F)F)ccc12 (stereo not drawn) [HALOFANTRINE]
Response: 0

Prompt: # get_value(readout= HepSE_hepatitis, system= Hepatotoxicity) for NCC1(CC(=O)O)CCCCC1 [GABAPENTIN]
Response: 1

Prompt: # get_value(readout= HepSE_hepatitis, system= Hepatotoxicity) for Cc1ccc(Cl)c(Nc2ccccc2C(=O)O)c1Cl [MECLOFENAMIC ACID]
Response: 0

Prompt: # get_value(readout= HepSE_hepatitis, system= Hepatotoxicity) for COCc1c(C(C)C)nc(C(C)C)c(/C=C/[C@@H](O)C[C@@H](O)CC(=O)O)c1-c1ccc(F)cc1 [CERIVASTATIN]
Response: 1

Prompt: # get_value(readout= HepSE_hepatitis, system= Hepatotoxicity) for O=C(O)CCC(=O)O.O=C(O[C@H]1CN2CCC1CC2)N1CCc2ccccc2[C@@H]1c1ccccc1 [SOLIFENACIN SUCCINATE]
Response: 0

Prompt: # get_value(readout= HepSE_hepatitis, system= Hepatotoxicity) for C[C@]12C/C(=C/O)C(=O)C[C@@H]1CC[C@@H]1[C@@H]2CC[C@@]2(C)[C@H]1CC[C@]2(C)O [OXYMETHOLONE]
Response: 0

Prompt: # get_value(readout= HepSE_hepatitis, system= Hepatotoxicity) for O=[N+]([O-])O[C@@H]1CO[C@H]2[C@@H]1OC[C@@H]2O [ISOSORBIDE MONONITRATE]
Response: 0

Prompt: # get_value(readout= HepSE_hepatitis, system= Hepatotoxicity) for CC[C@H]1OC(=O)[C@H](C)[C@@H](O[C@H]2C[C@@](C)(OC)[C@@H](O)[C@H](C)O2)[C@H](C)[C@@H](O[C@@H]2O[C@H](C)C[C@H](N(C)C)[C@H]2O)[C@](C)(O)C[C@@H](C)C(=O)[C@H](C)[C@@H](O)[C@]1(C)O [ERYTHROMYCIN]
Response: 1

Prompt: # get_value(readout= HepSE_hepatitis, system= Hepatotoxicity) for c1ccc2[nH]c(-c3cscn3)nc2c1 [THIABENDAZOLE]
Response: 0

Prompt: # get_value(readout= HepSE_hepatitis, system= Hepatotoxicity) for O=C(OOC(=O)c1ccccc1)c1ccccc1 [BENZOYL PEROXIDE]
Response: 0

Prompt: # get_value(readout= HepSE_hepatitis, system= Hepatotoxicity) for CCN(CC)C(=O)/C(C#N)=C/c1cc(O)c(O)c([N+](=O)[O-])c1 [ENTACAPONE]
Response: 1

Prompt: # get_value(readout= HepSE_hepatitis, system= Hepatotoxicity) for COc1ccc(CCN(C)CCCC(C#N)(c2ccc(OC)c(OC)c2)C(C)C)cc1OC (stereo not drawn)
Response: 1

Prompt: # get_value(readout= HepSE_hepatitis, system= Hepatotoxicity) for OC(CCN1CCCC1)(c1ccccc1)C1CCCCC1 (stereo not drawn) [PROCYCLIDINE]
Response: 0

Prompt: # get_value(readout= HepSE_hepatitis, system= Hepatotoxicity) for CC(C)CC(N(C)C)C1(c2ccc(Cl)cc2)CCC1 (stereo not drawn) [SIBUTRAMINE]
Response: 0
